molecular target: DA transporter (Homo sapiens, UniProt Q01959); experiment: Radioligand binding assay, DA transporter ([3H]GBR 12935 displacement); conditions: human recombinant; [3H]GBR 12935 0.5 nM; read-out: Ki, Dopamine (DA) transporter
Sequence (Q01959 whole entry): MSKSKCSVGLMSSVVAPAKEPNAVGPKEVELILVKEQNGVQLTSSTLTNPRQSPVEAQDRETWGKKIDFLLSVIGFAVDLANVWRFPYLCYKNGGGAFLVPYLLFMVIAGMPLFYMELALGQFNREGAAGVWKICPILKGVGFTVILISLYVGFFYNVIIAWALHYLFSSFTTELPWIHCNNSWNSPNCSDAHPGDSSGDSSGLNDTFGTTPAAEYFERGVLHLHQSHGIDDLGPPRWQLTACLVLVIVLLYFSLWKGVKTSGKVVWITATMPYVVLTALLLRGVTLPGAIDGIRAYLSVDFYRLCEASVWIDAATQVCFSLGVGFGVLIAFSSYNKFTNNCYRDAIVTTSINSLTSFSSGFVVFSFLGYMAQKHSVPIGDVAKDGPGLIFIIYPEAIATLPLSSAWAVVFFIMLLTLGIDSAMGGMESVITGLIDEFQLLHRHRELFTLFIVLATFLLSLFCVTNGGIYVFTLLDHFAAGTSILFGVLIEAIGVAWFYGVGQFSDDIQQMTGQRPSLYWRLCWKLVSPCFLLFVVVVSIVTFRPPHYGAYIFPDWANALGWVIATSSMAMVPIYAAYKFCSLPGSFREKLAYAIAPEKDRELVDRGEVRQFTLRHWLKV
pKi: −log10 of the molar value.

| Structure string | Measured target | pKi |
| --- | --- | --- |
| N[C@@H]1CC[C@@H](c2ccc(Cl)c(Cl)c2)c2ccccc21 | DA transporter (Homo sapiens, UniProt Q01959) | 7.80 |

---

Target sequence: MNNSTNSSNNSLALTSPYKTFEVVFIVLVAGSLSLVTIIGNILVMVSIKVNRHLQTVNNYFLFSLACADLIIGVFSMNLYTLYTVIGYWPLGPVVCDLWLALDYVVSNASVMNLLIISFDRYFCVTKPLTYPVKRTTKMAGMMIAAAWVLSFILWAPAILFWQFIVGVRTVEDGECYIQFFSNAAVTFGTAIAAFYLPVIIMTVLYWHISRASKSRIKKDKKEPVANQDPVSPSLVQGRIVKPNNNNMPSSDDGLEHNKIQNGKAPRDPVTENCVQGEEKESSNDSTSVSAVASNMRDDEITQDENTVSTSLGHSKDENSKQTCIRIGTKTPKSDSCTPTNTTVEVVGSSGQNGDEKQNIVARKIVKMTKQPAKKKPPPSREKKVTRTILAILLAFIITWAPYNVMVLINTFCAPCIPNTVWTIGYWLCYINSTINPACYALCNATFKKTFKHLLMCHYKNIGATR
pKi: −log10 of the molar value.
// pKi lookup, one value per entry

| Compound | pKi |
| --- | --- |
| N[C@@H]1CC[C@@H](c2ccc(Cl)c(Cl)c2)c2ccccc21 [Compound P] | 5.30 |
| CN[C@H]1CC[C@@H](c2ccc(Cl)c(Cl)c2)c2ccccc21 [Sertraline, reference compound] | 5.43 |

---

target: recombinant human Norepinephrine (NE) transporter (Homo sapiens, UniProt P23975); experiment: Functional uptake of NE into cells expressing recombinant human transporters; conditions: read-out: IC50 inhibition of functional uptake in human transporters, Norepinephrine (NE)
Sequence (P23975 whole entry): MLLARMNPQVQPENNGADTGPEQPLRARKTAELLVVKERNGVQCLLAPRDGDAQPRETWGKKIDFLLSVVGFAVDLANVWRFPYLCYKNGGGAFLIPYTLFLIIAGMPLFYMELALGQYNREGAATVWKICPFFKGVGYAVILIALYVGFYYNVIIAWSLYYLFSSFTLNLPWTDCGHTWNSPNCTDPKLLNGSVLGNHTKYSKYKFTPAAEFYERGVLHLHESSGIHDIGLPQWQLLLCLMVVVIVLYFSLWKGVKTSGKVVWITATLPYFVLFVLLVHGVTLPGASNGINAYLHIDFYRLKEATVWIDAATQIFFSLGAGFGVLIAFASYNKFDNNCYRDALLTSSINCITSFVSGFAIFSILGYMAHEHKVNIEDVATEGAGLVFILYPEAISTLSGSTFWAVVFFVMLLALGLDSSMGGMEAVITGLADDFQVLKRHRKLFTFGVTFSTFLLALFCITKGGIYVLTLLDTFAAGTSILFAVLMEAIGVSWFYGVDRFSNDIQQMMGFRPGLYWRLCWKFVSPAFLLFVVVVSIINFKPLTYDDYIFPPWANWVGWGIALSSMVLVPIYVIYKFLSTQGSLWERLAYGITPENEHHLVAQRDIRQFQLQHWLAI
IC50 values for the molecules below.
Assay metric: IC50 (nM)

| Structure string | Readout unit | Measured value |
| --- | --- | --- |
| N[C@@H]1CC[C@@H](c2ccc(Cl)c(Cl)c2)c2ccccc21 | nM | 15.6 |
| N[C@H]1CC[C@H](c2ccc(Cl)c(Cl)c2)c2ccccc21 | nM | 16.5 |

---

molecular target: 5-HT2A (Homo sapiens, UniProt P28223)
Sequence (P28223 whole entry, species assumed): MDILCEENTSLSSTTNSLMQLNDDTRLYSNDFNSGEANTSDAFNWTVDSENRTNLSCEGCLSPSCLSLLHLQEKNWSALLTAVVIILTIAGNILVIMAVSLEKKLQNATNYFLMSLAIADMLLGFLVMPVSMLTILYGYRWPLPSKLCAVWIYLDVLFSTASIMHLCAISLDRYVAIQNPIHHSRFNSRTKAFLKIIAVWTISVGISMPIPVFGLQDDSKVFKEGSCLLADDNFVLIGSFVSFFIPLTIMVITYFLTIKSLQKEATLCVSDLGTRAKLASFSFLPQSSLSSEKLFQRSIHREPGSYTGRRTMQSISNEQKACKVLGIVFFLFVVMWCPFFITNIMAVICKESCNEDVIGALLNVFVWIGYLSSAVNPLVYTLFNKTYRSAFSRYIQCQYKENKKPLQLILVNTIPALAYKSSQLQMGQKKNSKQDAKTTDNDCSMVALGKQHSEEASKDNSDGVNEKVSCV
pKi: −log10 of the molar value.
Assay metric: pKi

| Molecule | Measured target | Measured value |
| --- | --- | --- |
| N[C@@H]1CC[C@@H](c2ccc(Cl)c(Cl)c2)c2ccccc21 [Compound P] | 5-HT2A (Homo sapiens, UniProt P28223) | 6.14 |

---

molecular target: NE transporter (Homo sapiens, UniProt P23975); test: Radioligand binding assay, NE transporter ([3H]nisoxetine displacement); details: human recombinant; [3H]nisoxetine 0.3 nM; read-out: Ki, Norepinephrine (NE) transporter
pKi: −log10 of the molar value.
Assay metric: pKi

| Structure string | Measured value |
| --- | --- |
| N[C@@H]1CC[C@@H](c2ccc(Cl)c(Cl)c2)c2ccccc21 | 7.70 |

---

biological target: H2 (Homo sapiens, UniProt P25021); assay: In vitro radioligand binding assay, H2
Sequence (P25021 whole entry): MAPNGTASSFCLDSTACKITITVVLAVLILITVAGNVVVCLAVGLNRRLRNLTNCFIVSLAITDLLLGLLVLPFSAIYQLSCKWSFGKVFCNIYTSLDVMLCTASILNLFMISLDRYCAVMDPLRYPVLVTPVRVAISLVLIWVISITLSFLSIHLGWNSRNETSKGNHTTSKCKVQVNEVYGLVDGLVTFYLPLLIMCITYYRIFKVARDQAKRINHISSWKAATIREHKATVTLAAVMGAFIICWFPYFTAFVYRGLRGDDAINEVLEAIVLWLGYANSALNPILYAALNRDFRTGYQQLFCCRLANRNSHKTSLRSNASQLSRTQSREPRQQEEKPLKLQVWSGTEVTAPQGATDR
Assay metric: Ki

| Compound | Measured value |
| --- | --- |
| COc1ccc(C(CN(C)C)C2(O)CCCCC2)cc1 (stereo not shown) | 89 µM |
